Target: PIM-1 (Homo sapiens)
Sequence (P11309 whole entry, species assumed): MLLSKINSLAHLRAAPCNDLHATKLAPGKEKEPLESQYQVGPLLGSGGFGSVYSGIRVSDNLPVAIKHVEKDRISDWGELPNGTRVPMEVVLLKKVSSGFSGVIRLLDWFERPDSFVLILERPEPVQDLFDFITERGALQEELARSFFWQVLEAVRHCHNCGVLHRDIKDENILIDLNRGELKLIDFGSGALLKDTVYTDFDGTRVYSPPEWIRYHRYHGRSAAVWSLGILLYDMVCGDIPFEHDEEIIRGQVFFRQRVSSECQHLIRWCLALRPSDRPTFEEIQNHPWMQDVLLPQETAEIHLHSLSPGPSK
Structures can show the parent of a compound that is named as a salt.
endpoint-name: IC50 (nM)
Quick reminder: number only, in nM, skip the unit.

Looking up CCOc1cc2nc(-c3nnc4ccc([C@H](N5CC[C@H](N)C5)C(F)(F)F)cn34)ccc2cc1F [Example 249, dihydrochloride] , I see its IC50 listed as 0.51

So for COc1cccc2ccc(-c3nnc4ccc([C@H](N5CC[C@H](N)C5)C(F)(F)F)cn34)nc12 [Example 8, dihydrochloride] , the logged IC50 turned out to be 1.31

IC50 reported for this molecule CC(C)(O)COc1cccc2ccc(-c3nnc4ccc([C@@H](N5CC[C@@](C)(N)C5)C(F)(F)F)cn34)nc12 [Example 272, dihydrochloride] : 0.24
